Assay: Clearance in Sprague-Dawley rat at 2 mg/kg, iv by measured up to 24 hrs by LC-MS /MS analysis
Type: ADME, organism-based
Conditions: in vivo
OBSERVED PROPERTY: clearance (mL/min/kg)
Hi! Could you send only the number? It should be in mL/min/kg, unit omitted.

Problem: Fill in: clearance of COc1ccc(CNc2cccnc2)cc1-c1cccc(F)c1 is ___
Solution: 103

###

Biological target: 3',5'-cyclic-AMP phosphodiesterase 4B (Homo sapiens, UniProt Q07343)
Sequence (Q07343 whole entry): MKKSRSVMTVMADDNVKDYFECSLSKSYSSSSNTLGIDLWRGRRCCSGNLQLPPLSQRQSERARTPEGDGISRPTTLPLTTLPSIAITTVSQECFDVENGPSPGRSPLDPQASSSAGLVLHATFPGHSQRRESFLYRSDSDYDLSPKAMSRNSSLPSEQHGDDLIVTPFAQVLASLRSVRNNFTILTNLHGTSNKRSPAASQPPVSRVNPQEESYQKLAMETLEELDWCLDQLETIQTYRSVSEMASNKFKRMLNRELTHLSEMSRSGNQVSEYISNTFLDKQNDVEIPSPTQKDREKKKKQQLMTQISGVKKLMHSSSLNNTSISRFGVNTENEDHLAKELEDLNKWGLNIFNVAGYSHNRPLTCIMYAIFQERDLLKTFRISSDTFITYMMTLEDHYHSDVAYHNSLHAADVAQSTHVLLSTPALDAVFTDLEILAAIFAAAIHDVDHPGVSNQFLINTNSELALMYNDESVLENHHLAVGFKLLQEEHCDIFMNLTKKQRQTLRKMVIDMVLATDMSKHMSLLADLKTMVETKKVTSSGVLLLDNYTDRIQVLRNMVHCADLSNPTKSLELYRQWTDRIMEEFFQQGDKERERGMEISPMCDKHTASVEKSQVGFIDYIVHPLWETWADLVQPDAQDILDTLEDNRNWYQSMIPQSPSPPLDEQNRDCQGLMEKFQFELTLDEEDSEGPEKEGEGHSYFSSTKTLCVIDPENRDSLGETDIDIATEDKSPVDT
OBSERVED PROPERTY: IC50 (µM)
Hi! Could you send only the number? It should be in µM, unit omitted.

Here are 5 molecules together with their reported answers.
| SMILES RECORD | RESULT NUMBER |
| --- | --- |
| COc1ccc(CNc2cccnc2)cc1-c1cccc(Cl)c1 | 2.3 |
| COc1ccc(CNc2cccnc2)cc1-c1cccc(F)c1 | 0.34 |
| COc1cccc(-c2cc(CNc3cccnc3)ccc2OC)c1 | 0.68 |
| COc1ccc(CN2CCOCC2)cc1-c1cccc(F)c1 | 3.7 |
| FC(F)Oc1ccc(CN2CCOCC2)cc1-c1cccc(Cl)c1 | 4.1 |

Problem: Fill in: IC50 of COc1ccc(CN2CCOCC2)cc1-c1cccc(Cl)c1 is ___
Solution: 3.5

###

Experiment: AUC (0 to infinity) in Sprague-Dawley rat at 2 mg/kg, iv by measured up to 24 hrs by LC-MS /MS analysis
Assay type: ADME, organism-based
Set-up: dose 2 mg/kg, time infinity, route intravenous
Details: in vivo
OBSERVED PROPERTY: AUC(0-inf) (ng·h/mL)
Hi! Could you send only the number? It should be in ng·h/mL, unit omitted.

Problem: Fill in: AUC(0-inf) of COc1ccc(CNc2cccnc2)cc1-c1cccc(F)c1 is ___
Solution: 327

###

Test: Cmax in Sprague-Dawley rat at 10 mg/kg, po by measured up to 24 hrs by LC-MS /MS analysis
Format: ADME, organism-based
Design: dose 10 mg/kg, route oral
Conditions: in vivo
OBSERVED PROPERTY: Cmax (ng/mL)
Hi! Could you send only the number? It should be in ng/mL, unit omitted.

Problem: Fill in: Cmax of COc1ccc(CNc2cccnc2)cc1-c1cccc(F)c1 is ___
Solution: 14.7

###

Test: Mean residence time (0 to infinity) in Sprague-Dawley rat at 10 mg/kg, po by measured up to 24 hrs by LC-MS /MS analysis
Type: ADME, organism-based
Conditions: in vivo
OBSERVED PROPERTY: MRT inf
Provide a numeric answer, followed by its unit.

Problem: Fill in: MRT inf of COc1ccc(CNc2cccnc2)cc1-c1cccc(F)c1 is ___
Solution: 7.61 h

###

Test: AUC (0 to t) in Sprague-Dawley rat at 10 mg/kg, po by measured up to 24 hrs by LC-MS /MS analysis
Assay type: ADME, organism-based
Design: time < 24 hr, dose 10 mg/kg, route oral
Details: in vivo
OBSERVED PROPERTY: AUC(0-t) at 24 h (ng·h/mL)
Hi! Could you send only the number? It should be in ng·h/mL, unit omitted.

Problem: Fill in: AUC(0-t) at 24 h of COc1ccc(CNc2cccnc2)cc1-c1cccc(F)c1 is ___
Solution: 84.4

###

Assay: Tmax in Sprague-Dawley rat at 2 mg/kg, iv by measured up to 24 hrs by LC-MS /MS analysis
Assay type: ADME, organism-based
Details: in vivo
OBSERVED PROPERTY: Tmax (min)
Hi! Could you send only the number? It should be in min, unit omitted.

Problem: Fill in: Tmax of COc1ccc(CNc2cccnc2)cc1-c1cccc(F)c1 is ___
Solution: 4.8

###

Test: Half life in Sprague-Dawley rat at 2 mg/kg, iv by measured up to 24 hrs by LC-MS /MS analysis
Assay type: ADME, organism-based
Conditions: in vivo
OBSERVED PROPERTY: half-life (h)
Hi! Could you send only the number? It should be in h, unit omitted.

Problem: Fill in: half-life of COc1ccc(CNc2cccnc2)cc1-c1cccc(F)c1 is ___
Solution: 1.26

###

Test: Mean residence time (0 to infinity) in Sprague-Dawley rat at 2 mg/kg, iv by measured up to 24 hrs by LC-MS /MS analysis
Type: ADME, organism-based
Settings: in vivo
OBSERVED PROPERTY: MRT inf

Problem: Fill in: MRT inf of COc1ccc(CNc2cccnc2)cc1-c1cccc(F)c1 is ___
Solution: 41.4 min

###

Experiment: Half life in Sprague-Dawley rat at 10 mg/kg, po by measured up to 24 hrs by LC-MS /MS analysis
Type: ADME, organism-based
Settings: in vivo
OBSERVED PROPERTY: half-life (h)
Hi! Could you send only the number? It should be in h, unit omitted.

Problem: Fill in: half-life of COc1ccc(CNc2cccnc2)cc1-c1cccc(F)c1 is ___
Solution: 4.32

// provenance: ChEMBL document CHEMBL4390657
